This document collects Ki values reported for Cannabinoid receptor 2 (Homo sapiens, UniProt P34972).
Enter your answer as a number in nM; do not include the unit.

Please review the entries below; each comes with its answer.
[
  {
    "SMILES": "CCCCCn1cc(C(=O)NC2CCCCCC2)c(=O)n2nc(-c3ccc(C)cc3)cc12",
    "ENDPOINT LABEL": "Ki",
    "RECORDED MEASUREMENT": 10.3
  },
  {
    "SMILES": "CCCCCn1cc(C(=O)NC23CC4CC(CC(C4)C2)C3)c(=O)n2nc(-c3ccccc3Cl)cc12",
    "ENDPOINT LABEL": "Ki",
    "RECORDED MEASUREMENT": 6.21
  },
  {
    "SMILES": "CCCCCn1cc(C(=O)NC23CC4CC(CC(C4)C2)C3)c(=O)n2nc(-c3cc(C)cs3)cc12",
    "ENDPOINT LABEL": "Ki",
    "RECORDED MEASUREMENT": 15
  },
  {
    "SMILES": "CCCCCn1cc(C(=O)NC2CCCCC2)c(=O)n2nc(CC)cc12",
    "ENDPOINT LABEL": "Ki",
    "RECORDED MEASUREMENT": 10.4
  }
]

// assay Cannabinoid receptor 2 (Homo sapiens, UniProt P34972), entry CCCCCn1cc(C(=O)NC2CCCCCC2)c(=O)n2nc(C(C)(C)C)cc12 , Ki value = 7.22

// assay Cannabinoid receptor 2 (Homo sapiens, UniProt P34972), entry CCCCCn1cc(C(=O)NC2CCCCC2)c(=O)n2nc(-c3ccco3)cc12 , Ki value = 9.52

// assay Cannabinoid receptor 2 (Homo sapiens, UniProt P34972), entry CCCCCn1cc(C(=O)NC23CC4CC(CC(C4)C2)C3)c(=O)n2nc(C)cc12 , Ki value = 12.7

// assay Cannabinoid receptor 2 (Homo sapiens, UniProt P34972), entry CCCCCn1cc(C(=O)NC2CCCCCC2)c(=O)n2nc(C)cc12 , Ki value = 10.3

// assay Cannabinoid receptor 2 (Homo sapiens, UniProt P34972), entry CCCCCn1cc(C(=O)NC23CC4CC(CC(C4)C2)C3)c(=O)n2nc(-c3cccs3)cc12 , Ki value = 6.24
